- Test system: Vero E6
- assay_info: cell viability relative to DMSO; higher = less toxic
- experimental_parameters: 72 h; 1 nM
property_label: cell viability (%)

- compound: "O=C(/C=C/c1ccc(O)cc1)c1ccc(O)cc1O"
  property_label: "cell viability"
  reported_result: 99.4
- compound: "Oc1cc2c(cc1O)C(c1ccccc1)CNCC2 (stereo not drawn)"
  property_label: "cell viability"
  reported_result: 104
- compound: "NCCC(=O)N[C@@H](Cc1c[nH]cn1)C(=O)O"
  property_label: "cell viability"
  reported_result: 94.3
- compound: "CC(=O)Oc1cccc(C(=O)O)c1OC(C)=O"
  property_label: "cell viability"
  reported_result: 101
- compound: "Cc1c(-c2ccccc2)oc2c(C(=O)OCCN3CCCCC3)cccc2c1=O [flavoxate]"
  property_label: "cell viability"
  reported_result: 98.1
- compound: "C=CCN1CCN(c2nc3ccccc3nc2C#N)CC1"
  property_label: "cell viability"
  reported_result: 94.9
- compound: "CC(C)CNc1ccnc(NCc2csc(-c3ccccc3)n2)n1"
  property_label: "cell viability"
  reported_result: 103
- compound: "Cc1c(Cl)cccc1S(=O)(=O)Nc1nc(NCCc2ccccc2)nc2c1CN(Cc1ccccc1)CC2"
  property_label: "cell viability"
  reported_result: 95.3
- compound: "Cn1nnnc1SCC1=C(C(=O)O)N2C(=O)[C@@H](NC(=O)[C@H](OC=O)c3ccccc3)[C@H]2SC1 [cefamandole-nafate]"
  property_label: "cell viability"
  reported_result: 104
- compound: "COc1cc2nc(C3CC3)nc(N3CCN(c4ccccc4OC)CC3)c2cc1OC"
  property_label: "cell viability"
  reported_result: 96.9
- compound: "O=S(=O)(O)c1ccc(-c2c3nc(c(-c4ccc(S(=O)(=O)O)cc4)c4ccc([nH]4)c(-c4ccc(S(=O)(=O)O)cc4)c4nc(c(-c5ccc(S(=O)(=O)O)cc5)c5ccc2[nH]5)C=C4)C=C3)cc1"
  property_label: "cell viability"
  reported_result: 110
- compound: "c1coc(-c2nnc3sc(C4CCCCC4)nn23)c1"
  property_label: "cell viability"
  reported_result: 98.3
- compound: "NC(=O)[C@@H]1CC[C@@H]2CN1C(=O)N2OS(=O)(=O)O"
  property_label: "cell viability"
  reported_result: 95
- compound: "C=C1C(=O)O[C@@H]2[C@H]3O[C@]3(C)CC/C=C(\\C)CC[C@@H]12 [parthenolide-(alternate-stereo)]"
  property_label: "cell viability"
  reported_result: 102
- compound: "CCn1cc(C(=O)O)c(=O)c2ccc(C)nc21"
  property_label: "cell viability"
  reported_result: 113
- compound: "O=C(NOCCO)c1ccc2cncn2c1Nc1ccc(I)cc1F"
  property_label: "cell viability"
  reported_result: 98.4
- compound: "Nc1cc(C(Cl)=C(Cl)Cl)c(S(N)(=O)=O)cc1S(N)(=O)=O"
  property_label: "cell viability"
  reported_result: 105
- compound: "COc1ccc(NS(=O)(=O)c2ccc(I)cc2)cc1N1CCN(C)CC1"
  property_label: "cell viability"
  reported_result: 103

---

We begin with a simple list: items and their reported cell viability.
- System: Vero E6
- assay_info: cell viability relative to DMSO; higher = less toxic
- experimental_parameters: 72 h; 1000 nM
property_label: cell viability (%)

- molecule: "COc1ccc2cc(-c3nc(-c4ccc([S+](C)[O-])cc4)[nH]c3-c3ccncc3)ccc2c1 (stereo not drawn) [tie2-kinase-inhibitor]"
  property_label: "cell viability"
  display_unit: "%"
  reported_result: 104
- molecule: "Cc1cc(CCC[C@H](CC(=O)NO)C(=O)N[C@H](C(=O)N[C@H](C)c2ccccc2)C(C)(C)C)ccc1-c1ccccc1"
  property_label: "cell viability"
  display_unit: "%"
  reported_result: 97
- molecule: "CCOc1cc(N2CCC(O)CC2)ccc1Nc1ncc2c(n1)N(C)c1ccccc1C(=O)N2C [XMD8-92]"
  property_label: "cell viability"
  display_unit: "%"
  reported_result: 93.5
- molecule: "CC(=O)Oc1ccccc1C(=O)Oc1ccccc1C(=O)O [acetylsalicylsalicylic-acid]"
  property_label: "cell viability"
  display_unit: "%"
  reported_result: 95.9
- molecule: "CO[C@H]1/C=C/O[C@@]2(C)Oc3c(C)c(O)c4c(O)c(c(/C=N/N=C/N5CCCCC5)c(O)c4c3C2=O)NC(=O)/C(C)=C\\C=C\\[C@H](C)[C@H](O)[C@@H](C)[C@@H](O)[C@@H](C)[C@H](OC(C)=O)[C@@H]1C"
  property_label: "cell viability"
  display_unit: "%"
  reported_result: 98.2
- molecule: "CC(=O)Oc1cccc(C(=O)O)c1OC(C)=O [dipyrocetyl]"
  property_label: "cell viability"
  display_unit: "%"
  reported_result: 99.4
- molecule: "NC(=O)c1nc(F)cnc1O [favipiravir]"
  property_label: "cell viability"
  display_unit: "%"
  reported_result: 96.8
- molecule: "Cc1ccc(N2CCN(CC[C@H]3NC(=O)c4ccccc43)CC2)cc1C"
  property_label: "cell viability"
  display_unit: "%"
  reported_result: 98.7
